FYI, the data here is from PubChem BioAssay (NCATS).

Assay Method Text: qHTS of pediatric cancer cell lines to identify multiple opportunities for drug repurposing: Primary screen for U-2 OS cells (AID 1347096); further: nearly all actives have a fitted effect of over 50% in size
Study Conditions: U-2 OS viability, CellTiter-Glo luminescence, 48 h; series mostly up to 46 µM
Records with an inconclusive call do not appear. Activity calls are given as the source filed them. The call rests on the fitted dose curve; in most records, active means well fitted cell-killing curve with a large enough effect; inconclusive means small, poorly fitted or top-dose-only effect; inactive means flat fitted curve, though single readings scatter.
Outcomes: active, inactive

{"columns": ["Compound", "Discrete Label"],
 "data": [
  ["O=C(Nc1cccc(Cl)c1)Nc1ncc(CCNc2ncnc3ccsc23)s1", "inactive"],
  ["CCOC(=O)N1c2ccc(C(F)(F)F)cc2[C@@H](N(Cc2cc(C(F)(F)F)cc(C(F)(F)F)c2)C(=O)OC)C[C@H]1CC", "inactive"],
  ["C[C@@H]1O[C@@H](O[C@H]2CC[C@@]3(C)[C@H](CC[C@@H]4[C@H]3C[C@@H](O)[C@]3(C)[C@@H](C5=CC(=O)OC5)CC[C@]43O)C2)C[C@H](O)[C@@H]1O[C@H]1C[C@H](O)[C@H](O[C@H]2C[C@H](O)[C@@H](O)[C@@H](C)O2)[C@H](C)O1 (stereo in doubt)", "active"],
  ["Cc1cc(NC(=O)Nc2ccc(N(C)C)cc2)c2cc(F)cc(F)c2n1", "inactive"],
  ["CC1(COc2ccc3c(c2)ncn3-c2ccc3cccc(N4CCC(N)CC4)c3n2)COC1", "active"],
  ["COc1cc(N2CCN(C)CC2)ccc1Nc1nc(N)c(C(=O)c2c(Cl)cccc2Cl)s1", "inactive"],
  ["NCC1CCC(C(=O)O)CC1 (centres undefined)", "inactive"],
  ["NC(=O)c1ncn([C@@H]2O[C@H](CO)[C@@H](O)[C@@H]2O)n1", "inactive"],
  ["C[C@@H]1[C@H](C)CC[C@]2(C(=O)O)CC[C@]3(C)C(=CC[C@@H]4[C@@]5(C)CC[C@H](O)C(C)(C)[C@H]5CC[C@]43C)[C@@H]12", "inactive"],
  ["CN1[C@H]2CC[C@H]1CC(OC(=O)c1c[nH]c3ccccc13)C2 (some centres undefined)", "inactive"],
  ["Cc1cc2c(cc1C1(c3ccc(C(=O)O)cn3)CC1)C(C)(C)CCC2(C)C", "inactive"],
  ["CCCCOCCOc1nc(-c2ccc(C(=O)O)c(F)c2)sc1C", "inactive"],
  ["Oc1cc(O)cc(C=Cc2ccc(O)c(O)c2)c1", "inactive"],
  ["COc1ccc(CCC(=O)Nc2nc3ccc(Cl)cc3s2)cc1OC", "inactive"],
  ["CC[C@H](NC(=O)[C@H](C)NC)C(=O)N1C[C@@H](O)C[C@H]1Cc1c(-c2[nH]c3cc(F)ccc3c2C[C@H]2C[C@H](O)CN2C(=O)[C@H](CC)NC(=O)[C@H](C)NC)[nH]c2cc(F)ccc12", "inactive"],
  ["COc1cc2nccc(Oc3ccc(NC(=O)Nc4ccc(F)cc4F)c(F)c3)c2cc1OC", "inactive"],
  ["COc1nc(C)cnc1NS(=O)(=O)c1cccnc1-c1ccc(-c2nnco2)cc1", "inactive"],
  ["N#Cc1c(N(CC(=O)O)CC(=O)O)sc(C(=O)O)c1CC(=O)O", "inactive"],
  ["CCCCc1ccc(NS(=O)(=O)c2ccc(C)c(C(=O)N3CCN(c4cccc(C)c4C)CC3)c2)cc1", "inactive"],
  ["COC(=O)[C@H](c1ccccc1Cl)N1CCc2sccc2C1", "inactive"],
  ["CC1(C)[C@H]2CC[C@]3(C)[C@@H](C(=O)C=C4[C@@H]5C[C@@](C)(C(=O)O)CC[C@]5(C)CC[C@]43C)[C@@]2(C)CC[C@@H]1O", "inactive"],
  ["COc1ccc(-c2oc3c(CC=C(C)C)c(O)cc(O)c3c(=O)c2O)cc1", "inactive"],
  ["Cc1cc(CS(=O)(=O)c2ccccc2)cc(OCc2ccc(CN3CCC[C@H]3CO)cc2)c1", "inactive"],
  ["NS(=O)(=O)c1cc(Cl)c(Cl)c(S(N)(=O)=O)c1", "inactive"],
  ["COc1ccc(C=CC(=O)Nc2ccccc2C(=O)O)cc1OC", "inactive"],
  ["CCC[C@H](N[C@@H](C)C(=O)N1[C@@H]2CCCC[C@H]2C[C@H]1C(=O)O)C(=O)OCC", "inactive"],
  ["COC(=O)N1CCN(Cc2cccc(NC(=O)Nc3ccc(C)nc3)c2F)CC1", "inactive"],
  ["CC(=O)O[C@]1(C(C)=O)CC[C@H]2[C@@H]3C=C(Cl)C4=CC(=O)[C@@H]5C[C@H]5[C@]4(C)[C@@H]3CC[C@@]21C", "inactive"],
  ["O=C1CCCC(=O)C1C(=O)c1ccc(C(F)(F)F)cc1[N+](=O)[O-]", "inactive"],
  ["C[C@@H]1[C@H](O)[C@@H](C)C=CC=CC=CC=CC=CC=CC=C[C@H](O[C@@H]2O[C@H](C)[C@H](O)[C@H](N)[C@@H]2O)C[C@@H]2O[C@](O)(C[C@@H](O)C[C@@H](O)[C@H](O)CC[C@@H](O)C[C@@H](O)CC(=O)O[C@H]1C)C[C@H](O)[C@@H]2C(=O)O", "inactive"],
  ["O=C1C(CCC(O)c2ccc(F)cc2)C(c2ccc(O)cc2)N1c1ccc(F)cc1 (centres undefined)", "inactive"],
  ["COc1nccc(-c2c(-c3ccc(F)cc3)ncn2C2CCNCC2)n1", "inactive"],
  ["C=CC[N+]1([C@H]2C[C@H]3[C@@H]4CC[C@H]5C[C@H](O)[C@@H](N6CCOCC6)C[C@]5(C)[C@@H]4CC[C@]3(C)[C@H]2OC(C)=O)CCCC1", "inactive"],
  ["CC(O)=C(C#N)C(=O)Nc1ccc(C(F)(F)F)cc1", "inactive"]
]}
